# MEASURED ON: alpha2 receptor (guinea pig vas deferens) (Cavia porcellus)
# Construct: both vasa deferentia were removed and placed in a dish; from tissue; host or cells: isolated vas deferens of male guinea pigs
# Sequence (Q60474 whole entry): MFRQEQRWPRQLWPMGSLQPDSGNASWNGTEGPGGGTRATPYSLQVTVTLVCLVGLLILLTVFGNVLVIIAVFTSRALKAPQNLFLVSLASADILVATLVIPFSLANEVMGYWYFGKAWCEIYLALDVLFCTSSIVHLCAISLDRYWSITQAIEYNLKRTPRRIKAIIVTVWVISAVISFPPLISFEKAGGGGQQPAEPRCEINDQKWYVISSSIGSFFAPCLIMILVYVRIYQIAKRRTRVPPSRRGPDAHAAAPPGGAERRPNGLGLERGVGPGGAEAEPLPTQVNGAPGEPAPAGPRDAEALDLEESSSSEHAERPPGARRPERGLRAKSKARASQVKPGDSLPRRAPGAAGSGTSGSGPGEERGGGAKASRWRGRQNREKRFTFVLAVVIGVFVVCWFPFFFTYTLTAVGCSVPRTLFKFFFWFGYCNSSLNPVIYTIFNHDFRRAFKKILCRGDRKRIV
# RUN DESCRIPTION: Alpha2 activity in isolated, superfused guinea pig vas deferens: stimulated/basal 3H-norepinephrine release
# Assay type: cell-based
EXPERIMENTAL ENDPOINT: EC50 (nM)
Use nM as the unit, but write only the number.

Reported EC50 ( C=CCOc1ccc(Cl)c2c1CCN(C)CC2.Cl [D, hydrochloride, reference compound] ) = 224
